Some compounds, each annotated with its measured pIC50.
biological target: full-length beta-Catenin (Uniprot ID P35222) (Homo sapiens); construct: 10 nM full-length beta-Catenin (Uniprot ID P35222); assay: Fluorescence polarization IC50 (beta-catenin / 5FAM-TCF4 10-53 competition); type: binding; conditions: read-out: FP EC50
Sequence (P35222 whole entry): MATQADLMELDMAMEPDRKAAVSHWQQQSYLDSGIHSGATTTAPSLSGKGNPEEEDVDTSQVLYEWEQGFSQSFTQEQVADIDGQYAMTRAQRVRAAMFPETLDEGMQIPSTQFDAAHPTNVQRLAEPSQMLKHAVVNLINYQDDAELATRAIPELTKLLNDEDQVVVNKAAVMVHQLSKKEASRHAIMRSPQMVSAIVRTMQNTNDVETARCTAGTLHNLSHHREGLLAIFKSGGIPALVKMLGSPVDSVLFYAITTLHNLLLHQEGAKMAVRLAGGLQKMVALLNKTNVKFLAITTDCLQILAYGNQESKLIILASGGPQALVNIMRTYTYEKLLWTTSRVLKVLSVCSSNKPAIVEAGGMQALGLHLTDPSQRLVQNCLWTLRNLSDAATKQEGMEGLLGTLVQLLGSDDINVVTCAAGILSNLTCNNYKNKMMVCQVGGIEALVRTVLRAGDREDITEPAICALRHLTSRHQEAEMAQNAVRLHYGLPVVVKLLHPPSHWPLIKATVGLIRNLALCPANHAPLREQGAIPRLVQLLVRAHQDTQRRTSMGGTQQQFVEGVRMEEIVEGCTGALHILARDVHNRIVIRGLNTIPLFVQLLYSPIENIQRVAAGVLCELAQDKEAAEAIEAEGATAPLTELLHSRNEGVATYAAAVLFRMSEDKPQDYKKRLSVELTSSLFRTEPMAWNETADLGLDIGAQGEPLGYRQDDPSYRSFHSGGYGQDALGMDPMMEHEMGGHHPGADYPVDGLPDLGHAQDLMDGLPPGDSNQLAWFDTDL
Reminder that pIC50 means the negative base-10 logarithm of the concentration expressed in mol/L.

Previously resolved entries follow.
[[record]]
compound = "CC(=O)N1CCC[C@]12CC=CCCCC1(CCCC=CCCCCCC[C@@](C)(C(=O)N[C@@H](Cc3ccccc3)C(=O)N[C@@H](Cc3csc4ccccc34)C(=O)N[C@@H](Cc3c[nH]cn3)C(N)=O)NC(=O)[C@H]([C@@H](C)O)NC(=O)[C@H](Cc3ccccc3)NC(=O)[C@H](C)NC(=O)[C@H](C)NC(=O)[C@H](CCC(=O)O)NC(=O)[C@H](CC(=O)O)NC1=O)NC(=O)[C@H](CC(C)C)NC(=O)[C@H](CC(=O)O)NC2=O (some centres unmarked) [I-617]"
experimental_system = "full-length beta-Catenin (Uniprot ID P35222) (Homo sapiens)"
endpoint_name = "pIC50"
result_value = 6.60

[[record]]
compound = "CC(=O)N1CCC[C@]12CC=CCCCC1(CCCC=CCCCCCC[C@@](C)(C(=O)N[C@@H](Cc3ccccc3)C(=O)N[C@@H](Cc3csc4ccccc34)C(=O)N[C@@H](CCO)C(N)=O)NC(=O)[C@H](CCC(N)=O)NC(=O)[C@H](Cc3ccccc3)NC(=O)[C@H](C)NC(=O)[C@H](C)NC(=O)[C@H](CCC(=O)O)NC(=O)[C@H](CC(=O)O)NC1=O)NC(=O)[C@H](C)NC(=O)[C@H](CC(=O)O)NC2=O (some centres unmarked) [I-492]"
experimental_system = "full-length beta-Catenin (Uniprot ID P35222) (Homo sapiens)"
endpoint_name = "pIC50"
result_value = 7.28

[[record]]
compound = "CC[C@H](C)[C@@H]1NC(=O)[C@H](CC(=O)O)NC(=O)[C@]2(CC=CCCCC3(CCCC=CCCCCCC[C@@](C)(C(=O)N[C@@H](Cc4ccccc4)C(=O)N[C@@H](Cc4csc5ccccc45)C(=O)N[C@@H](CCC(N)=O)C(N)=O)NC(=O)[C@H](CCC(N)=O)NC(=O)[C@H](Cc4ccccc4)NC(=O)[C@H](C)NC(=O)[C@H](CCC(N)=O)NC(=O)[C@H](CCC(=O)O)NC(=O)[C@H](CC(=O)O)NC3=O)NC1=O)CCCN2C(C)=O (some centres unmarked) [I-653]"
experimental_system = "full-length beta-Catenin (Uniprot ID P35222) (Homo sapiens)"
endpoint_name = "pIC50"
result_value = 6.97


Req: # lookup: pIC50 of CC(=O)N1CCC[C@]12CC=CCCCC1(CCCC=CCCCCCC[C@@](C)(C(=O)N[C@@H](Cc3ccccc3)C(=O)N[C@@H](Cc3csc4ccccc34)C(=O)N[C@@H](CCC(N)=O)C(=O)N[C@@H](C)C(N)=O)NC(=O)[C@H](CC(N)=O)NC(=O)[C@H](Cc3ccccc3)NC(=O)[C@H](C)NC(=O)[C@H](C)NC(=O)[C@H](CCC(=O)O)NC(=O)[C@H](CC(=O)O)NC1=O)NC(=O)[C@H](CC(C)C)NC(=O)[C@H](CC(=O)O)NC2=O (some centres unmarked) [I-730]
Resp: 7.46

Req: Quick check: pIC50 of CC[C@H](C)[C@@H]1NC(=O)[C@H](CC(=O)O)NC(=O)[C@]2(CC=CCCCC3(CCCC=CCCCCCC[C@@](C)(C(=O)N[C@@H](Cc4ccccc4)C(=O)N[C@@H](Cc4csc5ccccc45)C(=O)N[C@@H](Cc4c[nH]cn4)C(N)=O)NC(=O)[C@H](CCC(N)=O)NC(=O)[C@H](Cc4ccccc4)NC(=O)[C@H](C)NC(=O)[C@H](C)NC(=O)[C@H](CC(=O)O)NC(=O)[C@H](CC(=O)O)NC3=O)NC1=O)CCCN2C(C)=O (some centres unmarked) [I-581] ?
Resp: 6.95

----------
Test: Solubility in PBS
Type: physicochemical
Protocol: After ultracentrifugation of the PBS solution, the supernatant was analyzed by HPLC and compared to an HPLC injection 50 μM peptide DMSO solution. Solubility was determined by: [(Area of PBS peak)/(Area of DMSO peak)]*50 uM.
Endpoint Name: Solubility (µM)
Number only, in µM; omit the unit.

As a guide, the following entries are already answered.
[[record]]
compound = "CC(=O)N1CCC[C@]12CC=CCCCC1(CCCC=CCCCOC(=O)N3CC[C@@](C(=O)N[C@@H](Cc4ccsc4)C(=O)N[C@@H](Cc4csc5ccccc45)C(=O)N[C@@H](CCC(N)=O)C(N)=O)(C3)NC(=O)[C@H](CC(N)=O)NC(=O)[C@H](Cc3ccccc3)NC(=O)[C@H](C)NC(=O)[C@H](C)NC(=O)[C@H](CC(=O)O)NC(=O)[C@H](CCC(N)=O)NC1=O)NC(=O)[C@H](CC(C)(C)C)NC(=O)[C@H](CC(=O)O)NC2=O (some centres unmarked) [I-1210]"
units = "µM"
result_value = 50

[[record]]
compound = "CC(=O)N1CCC[C@]12CC=CCCCC1(CCCC=CCCCCCC[C@@](C)(C(=O)N[C@@H](Cc3ccsc3)C(=O)N[C@@H](Cc3csc4ccccc34)C(=O)N[C@@H](CCC(N)=O)C(N)=O)NC(=O)[C@H](CC(N)=O)NC(=O)[C@H](Cc3ccccc3)NC(=O)[C@H](C)NC(=O)[C@H](C)NC(=O)[C@H](CC(=O)O)NC(=O)[C@H](CC(=O)O)NC1=O)NC(=O)[C@H](CC(C)(C)C)NC(=O)[C@H](CC(=O)O)NC2=O (some centres unmarked) [I-679]"
units = "µM"
result_value = 48

[[record]]
compound = "CC[C@H](C)[C@@H]1NC(=O)[C@H](CC(=O)O)NC(=O)[C@]2(CC=CCCCC3(CCCC=CCCCCCC[C@@](C)(C(=O)N[C@@H](Cc4ccsc4)C(=O)N[C@@H](Cc4csc5ccccc45)C(=O)N[C@@H](Cc4c[nH]cn4)C(N)=O)NC(=O)[C@H](CC(N)=O)NC(=O)[C@H](Cc4ccccc4)NC(=O)[C@H](C)NC(=O)[C@H](C)NC(=O)[C@H](CC(=O)O)NC(=O)[C@H](CC(=O)O)NC3=O)NC1=O)CCCN2C(C)=O (some centres unmarked) [I-555]"
units = "µM"
result_value = 41

[[record]]
compound = "CC(C)C[C@@H]1NC(=O)[C@H](Cc2ccccc2)NC(=O)[C@H](C)NC(=O)[C@H](C)NC(=O)[C@H](CC(=O)O)NC(=O)[C@H](CC(=O)O)NC(=O)C2(CCCC=CCCCOC(=O)N3CC[C@@](C(=O)N[C@@H](Cc4ccccc4)C(=O)N[C@@H](Cc4csc5ccccc45)C(=O)N[C@@H](CCC(N)=O)C(N)=O)(C3)NC1=O)CCCC=CC[C@]1(CCCN1C(=O)CCCN(C)C)C(=O)N[C@@H](CC(=O)O)C(=O)N[C@@H](CC(C)(C)C)C(=O)N2 (some centres unmarked) [I-1359]"
units = "µM"
result_value = 34


Please examine the following record next.
Req: Recorded Solubility of CC(=O)N1CCC[C@]12CC=CCCCC1(CCCC=CCCCCCC[C@@](C)(C(=O)N[C@@H](Cc3ccccc3)C(=O)N[C@@H](Cc3csc4ccccc34)C(=O)N[C@@H](CC(N)=O)C(N)=O)NC(=O)[C@H](CC(N)=O)NC(=O)[C@H](Cc3ccccc3)NC(=O)[C@H](C)NC(=O)[C@H](C)NC(=O)[C@H](CCC(=O)O)NC(=O)[C@H](CC(=O)O)NC1=O)NC(=O)[C@H](CC(C)C)NC(=O)[C@H](CC(=O)O)NC2=O (some centres unmarked) [I-753] , please.
Resp: 50

----------
molecular target: beta-catenin/TCF4 engagement (Homo sapiens); construct: expressed in transfected cells; host or cells: HEK293; assay: Nano-BRET target engagement assay (B-cat-Halo & TCF4-Luc in HEK293 cells); assay type: cell-based; conditions: absolute IC50; read-out: NanoBRET Abs IC50
Endpoint Name: IC50 (µM)
Please state the figure in µM; there is no need to write the unit.

// below: answered compounds
[[record]]
compound = "CC(=O)N1CCC[C@]12CC=CCCCC1(CCCC=CCCCOC(=O)N3CC[C@@](C(=O)N[C@@H](Cc4ccsc4)C(=O)N[C@@H](Cc4csc5ccccc45)C(=O)N[C@@H](CCC(N)=O)C(N)=O)(C3)NC(=O)[C@H](CC(C)C)NC(=O)[C@H](Cc3ccc(C#N)cc3)NC(=O)[C@H](C)NC(=O)[C@H](C)NC(=O)[C@H](CC(=O)O)NC(=O)[C@H](CC(=O)O)NC1=O)NC(=O)[C@H](CC(C)(C)C)NC(=O)[C@H](CC(=O)O)NC2=O (some centres unmarked) [I-1202]"
result_value = 16.3

[[record]]
compound = "CC(=O)N1CCC[C@]12CC=CCCCC1(CCCC=CCCCOC(=O)N3CC[C@@](C(=O)N[C@@H](Cc4ccsc4)C(=O)N[C@@H](Cc4ccc5ccccc5c4)C(=O)N[C@@H](CCC(N)=O)C(N)=O)(C3)NC(=O)[C@H]([C@@H](C)O)NC(=O)[C@H](Cc3ccccc3)NC(=O)[C@H](C)NC(=O)[C@H](C)NC(=O)[C@H](CC(=O)O)NC(=O)[C@H](CC(=O)O)NC1=O)NC(=O)[C@H](CC(C)(C)C)NC(=O)[C@H](CC(=O)O)NC2=O (some centres unmarked) [I-1233]"
result_value = 54.5


Req: What measured IC50 goes with CC(=O)N1CCC[C@]12CC=CCCCC1(CCCC=CCCCOC(=O)N3CC[C@@](C(=O)N[C@@H](Cc4cccc5ccccc45)C(=O)N[C@@H](Cc4csc5ccccc45)C(=O)N[C@@H](CO)C(N)=O)(C3)NC(=O)[C@H]([C@@H](C)O)NC(=O)[C@H](Cc3ccccc3)NC(=O)[C@H](C)NC(=O)[C@H](C)NC(=O)[C@H]([C@@H](C)O)NC(=O)[C@H](CC(=O)O)NC1=O)NC(=O)[C@H](CC(C)(C)C)NC(=O)[C@H](CC(=O)O)NC2=O (some centres unmarked) [I-1269] ?
Resp: 17.6
